# targetOrTestSystem: Bifunctional dihydrofolate reductase-thymidylate synthase (Plasmodium falciparum K1, UniProt P13922)
# Sequence (P13922 whole entry): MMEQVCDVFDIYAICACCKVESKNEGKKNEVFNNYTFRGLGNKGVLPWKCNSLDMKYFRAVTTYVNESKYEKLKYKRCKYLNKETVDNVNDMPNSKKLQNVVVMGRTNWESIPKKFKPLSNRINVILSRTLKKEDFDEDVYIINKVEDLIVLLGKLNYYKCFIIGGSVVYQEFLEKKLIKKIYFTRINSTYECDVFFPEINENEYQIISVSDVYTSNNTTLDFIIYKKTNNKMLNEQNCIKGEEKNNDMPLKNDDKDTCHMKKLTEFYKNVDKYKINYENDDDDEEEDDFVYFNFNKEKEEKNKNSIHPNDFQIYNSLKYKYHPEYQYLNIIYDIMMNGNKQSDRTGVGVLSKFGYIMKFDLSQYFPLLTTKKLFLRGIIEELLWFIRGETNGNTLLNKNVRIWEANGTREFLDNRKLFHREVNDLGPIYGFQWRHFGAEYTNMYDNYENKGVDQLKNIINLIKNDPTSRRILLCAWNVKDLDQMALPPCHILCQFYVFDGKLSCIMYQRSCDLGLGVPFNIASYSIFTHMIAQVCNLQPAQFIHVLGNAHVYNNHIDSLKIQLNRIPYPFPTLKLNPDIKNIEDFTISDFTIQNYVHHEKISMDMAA
# testProtocol: Inhibition constant against Plasmodium falciparum dihydrofolate reductase
Record form. Attribute: Ki. Fill in for each entry.
Numbers only, in nM.

Completed entries (count: 8):
smilesEntry | result
CCc1nc(N)nc(N)c1-c1ccccc1 | 100
CC1(C)N=C(N)N=C(N)N1OCCCOc1cc(Cl)c(Cl)cc1Cl | 1.1
NNc1nc2ccccc2nc1NN | 8600
CCc1nc(N)nc(N)c1-c1ccc(OC)cc1 | 1.3
Nc1ncc(-c2cccc(Cl)c2)c(N)n1 | 75
Cc1nc(N)nc(N)c1-c1ccc(Cl)cc1 | 0.84
NC1=NCN(c2ccc(Cl)cc2)C(N)=N1 | 0.84
N=C(S)N/N=C/c1ccc(Oc2ncc(C(F)(F)F)cc2Cl)cc1 | 9000

Please give Ki for each item listed below.
1. N=C(NO)c1ccc(CNC(=O)c2ccc(Cl)cc2)cc1
2. COC(=O)CCCc1nc(N)nc(N)c1-c1ccc(Cl)cc1
3. CC1(C)N=C(N)N=C(N)N1c1ccc(Br)cc1

Result:
1: 1500; 2: 0.14; 3: 1.2

###

# targetOrTestSystem: Bifunctional dihydrofolate reductase-thymidylate synthase (Plasmodium falciparum K1)
# testProtocol: Inhibition constant against Plasmodium falciparum dihydrofolate reductase
readoutName: pKi
One number for each entry, as −log10 of the molar value.

Completed entries (count: 5):
smilesEntry | pKi
CC1(C)N=C(N)N=C(N)N1c1ccc(Cl)cc1 | 8.96
C=CCNC(=S)NNC(=O)c1cccn(Cc2cccc(Cl)c2)c1=O | 6.39
C/N=C(\S)NNC(=O)c1cccn(Cc2cccc(Cl)c2)c1=O | 6.05
CCc1nc(N)nc(N)c1-c1ccc(C(C)(C)C)cc1 | 9.11
CCc1nc(N)nc(N)c1-c1ccc(Cl)cc1Cl | 9.04

Please give pKi for each item listed below.
1. N/C(=N/O)c1ccc(Oc2c(Cl)cncc2Cl)cc1
2. CC1(C)N=C(N)N=C(N)N1c1ccc(F)cc1
3. C/C(=N\N=C(/N)S)c1ccc(Oc2c(Cl)cncc2Cl)cc1
4. Nc1nc(N)c(-c2cccc(Cl)c2)c(CCOCCCOc2ccccc2)n1

Result:
1: 6.03; 2: 6.77; 3: 5.85; 4: 7.89

###

# targetOrTestSystem: Bifunctional dihydrofolate reductase-thymidylate synthase (Plasmodium falciparum K1, UniProt P13922)
# testProtocol: Inhibition constant against Plasmodium falciparum dihydrofolate reductase
Record form. Attribute: Ki. Fill in for each entry.
Numbers only, in nM.

Completed entries (count: 5):
smilesEntry | readoutName | u | result
CC1(C)N=C(N)N=C(N)N1c1ccc(Cl)c(Cl)c1 | Ki | nM | 1.1
Nc1nc(N)c(-c2cccc(Cl)c2)c(CCCc2ccccc2)n1 | Ki | nM | 42
CCc1nc(N)nc(N)c1-c1ccc(Br)cc1 | Ki | nM | 0.84
N/C(=N\O)c1cccc(CS(=O)(=O)c2ccc(Cl)cc2)c1 | Ki | nM | 800
CCc1nc(N)nc(N)c1-c1ccc(OCc2ccc(Cl)cc2Cl)c(OC)c1 | Ki | nM | 9.6

Please give Ki for each item listed below.
1. CCc1nc(N)nc(N)c1-c1ccc(-c2ccccc2)cc1
2. CCCCCCc1nc(N)nc(N)c1-c1ccccc1
3. CCc1nc(N)nc(N)c1-c1ccc(Cl)c(Cl)c1
4. COC(=O)CCCc1nc(N)nc(N)c1-c1ccccc1
5. CCc1nc(N)nc(N)c1-c1ccc2c(c1)OCO2
6. Nc1ncc(-c2ccc(Cl)cc2)c(N)n1
7. COc1ccc(CCCc2nc(N)nc(N)c2-c2cccc(Cl)c2)cc1

Result:
90
10
0.79
10
72
0.74
11

###

Record form. Attribute: Ki. Fill in for each entry.
# targetOrTestSystem: Bifunctional dihydrofolate reductase-thymidylate synthase (Plasmodium falciparum K1, UniProt P13922)
# testProtocol: Inhibition constant against Plasmodium falciparum dihydrofolate reductase
Give bare numbers, in nM.

compound | result
N/N=C(\S)Nc1ccc(OCc2ccccc2)cc1 | 2000

Please give Ki for each item listed below.
1. CCOc1c(Br)cc(-c2c(N)nc(N)nc2CC)cc1Br
2. NC1=NCN(c2ccc(F)cc2)C(N)=N1

Result:
1: 37; 2: 88

###

# targetOrTestSystem: Bifunctional dihydrofolate reductase-thymidylate synthase (Plasmodium falciparum K1, UniProt P13922)
# testProtocol: Inhibition constant against Plasmodium falciparum dihydrofolate reductase
Record form. Attribute: pKi. Fill in for each entry.
Give bare numbers, as −log10 of the molar value.

Completed entries (count: 10):
compound | pKi
CCc1nc(N)nc(N)c1-c1ccc(C)cc1 | 8.96
Cc1nc(N)nc(N)c1-c1ccccc1 | 6.96
NC1=NCN(c2ccccc2)C(N)=N1 | 7.07
CCc1nc(N)nc(N)c1-c1cccc(OC)c1 | 7.44
Cc1cc2nc3n(c2cc1C)C(C)(C)NC(N)=N3 | 6.74
N=C(NO)c1ccc(Oc2cc(Cl)cc(Cl)c2)c([N+](=O)[O-])c1 | 5.77
COC(=O)c1sccc1-c1ccc(/C(C)=N/NC(N)=O)o1 | 4.70
Nc1nc(N)c(-c2ccc(Cl)cc2)c(CCCc2ccccc2)n1 | 9.13
CCc1nc(N)nc(N)c1-c1cccc(Cl)c1 | 7.14
Cc1[nH]c(N)cc2nc3ccccc3c1-2 | 5.64

Please give pKi for each item listed below.
1. CC1(C)N=C(N)N=C(N)N1c1ccccc1
2. Cc1nc(N)nc(N)c1-c1cccc(Cl)c1
3. Nc1ncc(-c2ccccc2)c(N)n1

Result:
1. 6.85
2. 7.08
3. 7.00

Task: Please look at this compound and report its pKi: NC(=S)N/N=C/c1ccccc1 [PHENYLTHIOSEMICARBAZONE]
Result: 4.51

Entry source: ChEMBL document CHEMBL1138679
